test system: PsFOMT; experiment: In vitro enzyme assay and kinetics of recombinant PsFOMT with flavonoid substrates; assay type: biochemical, Paeonia suffruticosa cv. 'Gunpohden'; set-up: key: —: no product detected; settings: purified recombinant PsFOMT, 200 μM SAM, 1 mM MgCl2, pH 7.5, 35° C.; means (SE) of triplicate assays
reported.endpoint: Vmax

compound: O=c1cc(-c2ccc(O)c(O)c2)oc2cc(O)cc(O)c12 [Luteolin]
Vmax: —
//
compound: OC[C@H]1O[C@@H](Oc2cc3c(O[C@@H]4O[C@H](CO)[C@@H](O)[C@H](O)[C@H]4O)cc(O)cc3[o+]c2-c2ccc(O)c(O)c2)[C@H](O)[C@@H](O)[C@@H]1O [Cyanidin 3,5-di-O-glucoside]
Vmax: 17.88 (0.25) nM s^−1
//
compound: OC[C@H]1O[C@@H](Oc2cc3c(O)cc(O)cc3[o+]c2-c2ccc(O)cc2)[C@H](O)[C@@H](O)[C@@H]1O [Pelargonidin 3-O-glucoside]
Vmax: —
//
compound: O=C(O)/C=C/c1ccc(O)c(O)c1 [Caffeic acid]
Vmax: —
//
compound: C[C@@H]1O[C@@H](OC[C@H]2O[C@@H](Oc3c(-c4ccc(O)c(O)c4)oc4cc(O)cc(O)c4c3=O)[C@H](O)[C@@H](O)[C@@H]2O)[C@H](O)[C@H](O)[C@H]1O [Quercetin 3-O-rutinoside]
Vmax: 27.44 (1.63) nM s^−1

For the compound O=c1c(O)c(-c2ccc(O)cc2)oc2cc(O)cc(O)c12 [Kaempferol] , what Vmax is on record?
—

And OC[C@H]1O[C@@H](Oc2cc3c(O)cc(O)cc3[o+]c2-c2ccc(O)c(O)c2)[C@H](O)[C@@H](O)[C@@H]1O [Cyanidin 3-O-glucoside] ?
11.57 (0.05) nM s^−1

###

test system: PsFOMT; assay: In vitro enzyme assay and kinetics of recombinant PsFOMT with flavonoid substrates; type: biochemical, Paeonia suffruticosa cv. 'Gunpohden'; conditions: purified recombinant PsFOMT, 200 μM SAM, 1 mM MgCl2, pH 7.5, 35° C.; means (SE) of triplicate assays
reported.endpoint: Specific Activity

Completed entries (count: 4):
compound: OC[C@H]1O[C@@H](Oc2cc3c(O)cc(O)cc3[o+]c2-c2ccc(O)c(O)c2)[C@H](O)[C@@H](O)[C@H]1O [Cyanidin 3-O-galactoside]
target.or.test.system: PsFOMT
val: 3138 (525) pkat mg^−1

compound: O=C(O)/C=C/c1ccc(O)c(O)c1
target.or.test.system: PsFOMT
val: —

compound: C[C@@H]1O[C@@H](OC[C@H]2O[C@@H](Oc3c(-c4ccc(O)c(O)c4)oc4cc(O)cc(O)c4c3=O)[C@H](O)[C@@H](O)[C@@H]2O)[C@H](O)[C@H](O)[C@H]1O [Quercetin 3-O-rutinoside]
target.or.test.system: PsFOMT
val: 2744 (135) pkat mg^−1

compound: OC[C@H]1O[C@@H](Oc2cc3c(O)cc(O)cc3[o+]c2-c2ccc(O)cc2)[C@H](O)[C@@H](O)[C@@H]1O [Pelargonidin 3-O-glucoside]
target.or.test.system: PsFOMT
val: —

For the compound O=c1cc(-c2ccc(O)c(O)c2)oc2cc(O)cc(O)c12 , what Specific Activity is on record?
—

And O=c1c(O)c(-c2ccc(O)c(O)c2)oc2cc(O)cc(O)c12 ?
142 (2) pkat mg^−1

And O=C1C[C@@H](c2ccc(O)cc2)Oc2cc(O)cc(O)c21 ?
—

###

test system: PsFOMT; test: In vitro enzyme assay and kinetics of recombinant PsFOMT with flavonoid substrates; assay type: biochemical, Paeonia suffruticosa cv. 'Gunpohden'; settings: purified recombinant PsFOMT, 200 μM SAM, 1 mM MgCl2, pH 7.5, 35° C.; means (SE) of triplicate assays

compound: OC[C@H]1O[C@@H](Oc2cc3c(O)cc(O)cc3[o+]c2-c2ccc(O)c(O)c2)[C@H](O)[C@@H](O)[C@H]1O [Cyanidin 3-O-galactoside]
Vmax: 39.22 (6.57) nM s^−1
--
compound: OC[C@H]1O[C@@H](Oc2cc3c(O)cc(O)cc3[o+]c2-c2cc(O)c(O)c(O)c2)[C@H](O)[C@@H](O)[C@@H]1O [Delphinidin 3-O-glucoside]
Vmax: 17.05 (0.27) nM s^−1
--
compound: O=c1c(O)c(-c2ccc(O)c(O)c2)oc2cc(O)cc(O)c12
Vmax: 1.77 (0.02) nM s^−1
--
compound: O=C1C[C@@H](c2ccc(O)cc2)Oc2cc(O)cc(O)c21
Vmax: —

###

tested on: PsFOMT; experiment: In vitro enzyme assay and kinetics of recombinant PsFOMT with flavonoid substrates; assay type: biochemical, Paeonia suffruticosa cv. 'Gunpohden'; details: in the presence of SAM
reported.endpoint: methylation of substrate by PsFOMT

compound: O=c1c(O)c(-c2ccc(O)c(O)c2)oc2cc(O)cc(O)c12 [Quercetin]
reported.endpoint: methylation of substrate by PsFOMT
val: can be methylated
//
compound: OC[C@H]1O[C@@H](Oc2cc3c(O)cc(O)cc3[o+]c2-c2ccc(O)c(O)c2)[C@H](O)[C@@H](O)[C@H]1O [Cyanidin 3-O-galactoside]
reported.endpoint: methylation of substrate by PsFOMT
val: can be methylated
//
compound: C[C@@H]1O[C@@H](OC[C@H]2O[C@@H](Oc3c(-c4ccc(O)c(O)c4)oc4cc(O)cc(O)c4c3=O)[C@H](O)[C@@H](O)[C@@H]2O)[C@H](O)[C@H](O)[C@H]1O [Quercetin 3-O-rutinoside]
reported.endpoint: methylation of substrate by PsFOMT
val: can be methylated

###

Assign Km to each entry below.
test system: PsFOMT; experiment: In vitro enzyme assay and kinetics of recombinant PsFOMT with flavonoid substrates; assay type: biochemical, Paeonia suffruticosa cv. 'Gunpohden'; conditions: purified recombinant PsFOMT, 200 μM SAM, 1 mM MgCl2, pH 7.5, 35° C., substrate 5 to 200 μM; means (SE) of triplicate assays; read-out: Km
I'd appreciate it if you wrote the number followed by its unit.

Query for PsFOMT: what Km does the record show for OC[C@H]1O[C@@H](Oc2cc3c(O)cc(O)cc3[o+]c2-c2cc(O)c(O)c(O)c2)[C@H](O)[C@@H](O)[C@@H]1O [Delphinidin 3-O-glucoside] ?
4.11 µM

And OC[C@H]1O[C@@H](Oc2cc3c(O[C@@H]4O[C@H](CO)[C@@H](O)[C@H](O)[C@H]4O)cc(O)cc3[o+]c2-c2ccc(O)c(O)c2)[C@H](O)[C@@H](O)[C@@H]1O [Cyanidin 3,5-di-O-glucoside] ?
1.06 µM

And OC[C@H]1O[C@@H](Oc2cc3c(O)cc(O)cc3[o+]c2-c2ccc(O)c(O)c2)[C@H](O)[C@@H](O)[C@H]1O [Cyanidin 3-O-galactoside] ?
31.7 µM

And OC[C@H]1O[C@@H](Oc2cc3c(O)cc(O)cc3[o+]c2-c2ccc(O)c(O)c2)[C@H](O)[C@@H](O)[C@@H]1O [Cyanidin 3-O-glucoside] ?
1.76 µM

And C[C@@H]1O[C@@H](OC[C@H]2O[C@@H](Oc3c(-c4ccc(O)c(O)c4)oc4cc(O)cc(O)c4c3=O)[C@H](O)[C@@H](O)[C@@H]2O)[C@H](O)[C@H](O)[C@H]1O [Quercetin 3-O-rutinoside] ?
12.3 µM

And O=c1c(O)c(-c2ccc(O)c(O)c2)oc2cc(O)cc(O)c12 ?
4.33 µM

###

test system: PtFOMT; assay: In vitro enzymatic activity of recombinant PtFOMT with potential substrates; assay type: biochemical, Paeonia tenuifolia; details: purified recombinant PtFOMT; means ± SE of triplicate assays
Assign Specific Activity to each entry below.
Report the value in pkat mg^−1 with no unit label.

For the compound OC[C@H]1O[C@@H](Oc2cc3c(O)cc(O)cc3[o+]c2-c2cc(O)c(O)c(O)c2)[C@H](O)[C@@H](O)[C@@H]1O [Delphinidin 3-O-glucoside] , what Specific Activity is on record?
21.50

And O=c1c(O)c(-c2ccc(O)c(O)c2)oc2cc(O)cc(O)c12 [Quercetin] ?
17.58

And C[C@@H]1O[C@@H](OC[C@H]2O[C@@H](Oc3c(-c4ccc(O)c(O)c4)oc4cc(O)cc(O)c4c3=O)[C@H](O)[C@@H](O)[C@@H]2O)[C@H](O)[C@H](O)[C@H]1O [Quercetin 3-O-rutinoside] ?
30.20

And OC[C@H]1O[C@@H](Oc2cc3c(O[C@@H]4O[C@H](CO)[C@@H](O)[C@H](O)[C@H]4O)cc(O)cc3[o+]c2-c2ccc(O)c(O)c2)[C@H](O)[C@@H](O)[C@@H]1O [Cyanidin 3,5-di-O-glucoside] ?
29.60

And OC[C@H]1O[C@@H](Oc2cc3c(O)cc(O)cc3[o+]c2-c2ccc(O)c(O)c2)[C@H](O)[C@@H](O)[C@@H]1O [Cyanidin 3-O-glucoside] ?
37.98

Numbers sourced from patent US20160177324A1.
